Tested on: COLO 205 colon
Experiment: NCI-60 one-dose screen, 48 h (100 = growth as untreated, 0 = no growth, -100 = all killed)
Conditions: 10 µM unless noted
Compounds without any hit were thinned out: in the full panel of roughly 83,000, 20% have a hit. Active and inactive are the calls of the source. Rule for the calls: active = growth percent below 10; inactive = the rest.
Observed Property: growth

The cases that follow already have their growth on record.
Cn1nc(-c2ccccc2)c2c(-c3ccccc3)onc2c1=O :: 15.2% (inactive)
C[C@H]1[C@@H]2[C@H]3CC[C@@H]4[C@@]5(C)Cc6c([nH]c7ccccc67)C(C)(C)[C@@H]5CC[C@@]4(C)[C@]3(C)CC[C@]23CO[C@]1(C)[C@@H](C(=O)/C=C/c1ccccn1)C3 :: 102% (inactive)
COc1ccccc1-n1cnc(N)c1C(=O)c1cc(OC)c(OC)c(OC)c1 :: 66.1% (inactive)
N#CCCCCCn1c2ccccc2c2c3c(c4c5ccccc5n(CCCCCC#N)c4c21)C(=O)N(O)C3=O :: 84.6% (inactive)

For every record below, what is its growth?
1. CCSc1ncnc2c1ncn2C1OC(CO)C(O)C1O (stereo not given)
2. CCN1CCN(C(=O)[C@]23CCC(C)(C)C[C@@H]2C2=CC[C@@H]4[C@@]5(C)C/C(=C/c6cccnc6)C(=O)C(C)(C)[C@@H]5CC[C@@]4(C)[C@]2(C)CC3)CC1
3. Cn1cc(-c2csc(-c3cn(C(=O)OC(C)(C)C)c4ccc(Br)cc34)n2)c2cccnc21
4. Cc1ccc(-c2nc([P+](c3ccccc3)(c3ccccc3)c3ccccc3)c(N3CCOCC3)o2)cc1

1: 20.8% (inactive); 2: 25.9% (inactive); 3: 86% (inactive); 4: -70% (active)

----------
Tested on: SK-OV-3 ovarian
Test: NCI-60 one-dose screen, 48 h (100 = growth as untreated, 0 = no growth, -100 = all killed)
Details: 10 µM unless noted
Protocol: Growth inhibition of the SK-OV-3 human tumor cell line is measured as a screen for anti-cancer activity. Cells are grown in 96 well plates and exposed to the test compound for 48 hours. Compounds are tested at a single concentration, which is 10^-5 M for most compounds. The reported endpoint is percent growth (GI% or GIPRCNT), where numbers from 0 - 100% represent growth inhibition, and numbers from -100% - 0 represent cell death. For example, a value of 40 represents 60% growth inhibition. […]
The panel holds about 83,000 compounds, 20% with a hit somewhere; the sample as a whole holds those more often. Activity calls are given as the source filed them. The calls were made as follows: active = growth percent below 10; inactive = the rest.
Observed Property: growth

The cases that follow already have their growth on record.
COc1cc(-c2nc(-c3ccccc3)c(-c3ccccc3)[nH]2)cc(OC)c1O :: -0.937% (active)
O=C(N/N=C\c1ccccc1O)C1CC1 :: 101% (inactive)
COc1ccc(C2c3ccccc3NC(=O)N2C2CCN(C)CC2)c(OC)c1 (centres undefined) :: 101% (inactive)
Nc1c(C(=O)Nc2c(Cl)cccc2Cl)sc2nc3c(cc12)CCCC3 :: 83.3% (inactive)
Cc1cc(N(CCCNc2ccnc3cc(Cl)ccc23)Cc2ccco2)nc(Cl)n1 :: 58.7% (inactive)
Cc1nnc2nc(N)[nH]n2c1=O :: 112% (inactive)
O=S(=O)(NCCNc1cc(-c2cn(-c3ccccc3)nc2-c2cccc(O)c2)ccn1)c1ccccc1 :: 69.5% (inactive)
N#Cc1cnc2cc(OC[C@@H](O)CO)c(NC(=O)CC3CSSC3)cc2c1Nc1ccc(OCc2cccc(F)c2)c(Cl)c1 :: -86.2% (active)
CN(C)c1cccc2[nH]c(-c3[nH]ncc3Nc3ccnc(N)n3)nc12 :: 0.381% (active)
NC(=O)[C@@H]1CC2CCC1C2 (some centres undefined) :: 101% (inactive)

For every record below, what is its growth?
1. O=C1C(=O)c2ccccc2C(O)=C1CCCc1ccc(C2CCCCC2)cc1
2. COc1ccc2[nH]c(-c3ccc(Cl)cc3)cc(=O)c2c1
3. COc1ccc2c3c(c4ccccc4cc13)C(=O)N(CCN(C)CCN)C2=O
4. C[C@]12CC[C@@H]3c4ccc(O)cc4CC[C@H]3[C@@H]1C[C@H](O)[C@@H]2O
5. O=Cc1nc2ccccc2[nH]1

1. 56.6% (inactive)
2. 99.6% (inactive)
3. -6.29% (active)
4. 120% (inactive)
5. 94.2% (inactive)

For every record below, what is its growth?
1. CC1(C)C(=O)/C(=C\c2ccccn2)C[C@]2(C)[C@H]3CC[C@@H]4[C@@H](C(=O)/C=C/c5ccccn5)CC[C@@]4(C)[C@]3(C)CC[C@@H]12
2. COc1ccc(NC(=S)N/N=C/c2ccccc2SSCCC(=O)OC[C@H]2O[C@H](O)[C@H](O)[C@@H](O)[C@@H]2O)cc1
3. Cc1ccc(NC2CC(=O)N(c3c(C)cc(C)cc3C)C2=O)c(C)c1 (centres undefined)
4. Cn1cc(-c2csc(-c3cn(C(=O)OC(C)(C)C)c4ccc(Br)cc34)n2)c2cccnc21
5. COc1ccc(C2=NN(c3nc(-c4ccc(OC)cc4)c(C#N)c(=O)n3C)C(=O)CC2)cc1

1: 35.1% (inactive); 2: 73.5% (inactive); 3: 121% (inactive); 4: 98.7% (inactive); 5: 96% (inactive)

For every record below, what is its growth?
1. COc1cc2ncnc(Nc3ccc(OCc4cccc(F)c4)c(Cl)c3)c2cc1NC(=O)C1CCCC1
2. N#Cc1c(-c2ccco2)nc2c(c(-c3ccccc3)nn2-c2ccccc2)c1-c1ccc(O)cc1
3. CCc1ccccc1NC(=O)c1sc2nc3c(cc2c1N)CCCC3
4. Nc1nc(Br)nc2c1ncn2C1CC(O)C(CO)O1 (centres undefined)

1: 13% (inactive); 2: 46.4% (inactive); 3: 38.8% (inactive); 4: 94.2% (inactive)
